assay: physchem
run-parameters: octan-1-ol/water, pH 7.4, LogD7.4
assay-readout: logD

- C[C@H](CO)Nc1nc(SCc2ccco2)nc2[nH]c(=O)sc12: 2.21
- Cc1c(S(=O)(=O)c2ccc(Cl)cc2)c2c(NS(C)(=O)=O)cccc2n1CC(=O)O: -0.83
- CN(CCOc1ccccc1-c1cc(C(N)=O)c(NC(N)=O)s1)Cc1ccccc1: 3.46
- Cc1ccc2c(c1)c(-c1ccnc3c(F)cccc13)c(C)n2CC(=O)O: 0.53
- NC(=O)Nc1sc(-c2ccc(CNC3CCCC3)cc2)cc1C(N)=O: 1.22

----------
assay: physchem
run-parameters: octan-1-ol/water, pH 7.4, LogD7.4
Some compounds, each annotated with its measured logD.
assay-readout: logD

* COc1cc2ncnc(Nc3cccc(Cl)c3F)c2cc1CN(C)C1(C(N)=O)CCN(C)CC1 | 2.16
* O=C(CC1CCN(Cc2ccn(-c3ccc(C(F)(F)F)cc3)c2)CC1)NC(c1ccc(F)cc1)c1c[nH]c(=O)c(Cl)c1 (stereo not given) | 3.12
* C[C@H](Nc1ncc(F)c(Nc2cc(C3CC3)[nH]n2)n1)c1ccc(F)cn1 | 3.14
* N#Cc1ccc(OC2CCN(C[C@H](O)CNC(=O)c3c[nH]c(=O)c4ccccc34)CC2)cc1Cl | 2.56
* CN(C)C(=O)[C@H](Cc1ccccc1)NC(=O)c1cc2cc(F)ccc2[nH]1 | 3.5
* COc1ccc2nc(C)cc(OCC(=O)Nc3ccccc3OC)c2c1 | 3.9
* C=CCOc1cc(-c2cccc3c(=O)cc(N4CCOCC4)oc23)ccc1NC(=O)CN1CCOCC1 | 3
* Clc1cccc(Nc2ncnc3ccccc23)c1 | 3.9
* CC[C@H](NC(=O)c1c([S+](C)[O-])c(-c2ccccc2)nc2cc(CN(C)C)ccc12)c1ccccc1 (stereo not given in full) | 2.75
* Cc1nccc(-c2ccc(-c3nc4ccncc4c(O)c3C#N)cc2)c1Cl | 2
* O=c1[nH]n(Cc2ccncc2)c(=O)c2c(=O)c3ccc(Cl)cc3[nH]c12 | -0.16
* CS(=O)(=O)Nc1cc(Nc2nccc(Nc3c(Cl)ccc4c3OCO4)n2)cc(C(N)=O)c1 | 2.28
* Cc1ccc(-n2c(C)cc(C(=O)NS(=O)(=O)c3ccc(C)cc3)c2C)cc1 | 2.5
* NC(=O)c1ccc(=O)n(Cc2ccc(F)c(F)c2)c1 | 1.37
* CC(=O)Nc1cnc2ccn(-c3cc(NC4CC4)n4ncc(C#N)c4n3)c2c1 | 2.69
* NC(=O)c1ccc(Br)cc1 | 1.75
* CN1CCCC(n2nc(Cc3ccc(Cl)cc3)c3ccccc3c2=O)CC1 (stereo not given) | 2.46
* COc1ccnc(N(C)c2ccnc(Nc3cc(N4CCOCC4)cc(N4CCOCC4)c3)n2)c1 | 2.23
* Cc1c(Sc2ccc(Cl)cc2)c2c(Cl)nccc2n1CC(=O)O | 0.92
* Nc1ncc(NC(=O)c2cc(NC(=O)c3cccc(C(F)(F)F)c3)ccc2Cl)cc1Cl | 3.26

----------
Some molecules, each annotated with its measured solubility thermodynamic.
assay: physchem
run-parameters: pH 7.4 buffer
assay-readout: solubility thermodynamic (µM)

• CNC(=O)[C@@H](C)Oc1cccc2ncnc(Nc3ccc4c(cnn4Cc4nccs4)c3)c12 = 1.3
• OC[C@H]1C[C@@H](n2nnc3c(N[C@@H]4C[C@H]4c4ccc(F)c(F)c4)nc(SCCC(F)(F)F)nc32)[C@H](O)[C@@H]1O = 7.2
• Cc1onc(-c2ccccc2)c1C(=O)OCC(=O)c1ccccc1 = 2
• O=S(=O)(c1cccc(-c2cn3cccnc3n2)c1)N1CCOCC1 = 39.8
• c1ccc2c(c1)Cc1ccccc1O2 = 4.4
